Recorded values, source patent EP0085842A1.

Measure name: MIC

IN: Please tell me: MIC of C=CC(C)(C)C(O)(COc1ccc(Cl)cc1Cl)Cn1ccnc1 (stereo not shown) , system Torulopsis glabrata?
OUT: < 1 µg/mL

IN: Lab note: need MIC for COCC(C)(C)C(O)(COc1ccc(Cl)cc1)Cn1cncn1 (stereo not shown) on Torulopsis glabrata, anyone have it?
OUT: 8 µg/mL

IN: What reported MIC corresponds to C=CC(C)(C)C(O)(COc1ccc(Cl)cc1Cl)Cn1cncn1 (stereo not shown) on Torulopsis glabrata?
OUT: 4 µg/mL

IN: GET /values?readout=MIC&system=Torulopsis glabrata&item= Cc1cc(Cl)ccc1OCC(O)(Cn1cncn1)C(C)(CF)CF (stereo not shown)
OUT: 4 µg/mL

IN: Give MIC (Torulopsis glabrata) of the following compound: CC(C)(COc1ccc(Cl)cc1)C(O)(CCc1ccc(Cl)cc1)Cn1cncn1 (stereo not shown)
OUT: 2 µg/mL

IN: Reported MIC for Torulopsis glabrata, given CCOCC(C)(C)C(O)(COc1ccc(Cl)cc1)Cn1cncn1 (stereo not shown) ?
OUT: 4 µg/mL

IN: Enter reported MIC observed with Torulopsis glabrata for C=CC(C)(C)C(O)(COc1ccc(-c2ccccc2)cc1)Cn1ccnc1 (stereo not shown)
OUT: < 1 µg/mL

---

Please consider the recorded MIC for Torulopsis glabrata in what follows.
I only need the number, in µg/mL, no unit after it.

IN: I am curious: what MIC value has been reported for CC(C)(Oc1ccc(Cl)cc1Cl)C(O)(CCc1ccc(Cl)cc1)Cn1cncn1 (stereo not drawn) ?
OUT: 8

IN: For the compound COCC(C)(C)C(O)(COc1ccc(Cl)cc1C)Cn1cncn1 (stereo not drawn) , what MIC is on record?
OUT: 4

IN: GET /values?readout=MIC&item= CC(C)(CF)C(O)(CSc1ccccc1Cl)Cn1cncn1 (stereo not drawn)
OUT: 16

IN: // returns reported MIC for input CC(CF)(CF)C(O)(CCc1ccc(Cl)cc1)Cn1ccnc1 (stereo not drawn)
OUT: 2

IN: What measured MIC goes with CC(CF)(CF)C(O)(COc1ccc(Cl)cc1Cl)Cn1cncn1 (stereo not drawn) ?
OUT: 4

IN: Form field: reported MIC of CC(C)(CF)C(O)(CSc1ccc(Cl)cc1)Cn1cncn1 (stereo not drawn)
OUT: 16

IN: What does the data say about its MIC? Entry: CC(CF)(CF)C(O)(CCc1ccc(Cl)cc1Cl)Cn1cncn1 (stereo not drawn)
OUT: 4

---

System: Torulopsis glabrata
Please go through the items and note down their MIC.
Use µg/mL as the unit, but write only the number.

IN: Observed MIC on Torulopsis glabrata for CC(C)(CF)C(O)(COc1ccc(Cl)cc1Cl)Cn1cncn1 (centres unmarked) , please.
OUT: 4

IN: Request: MIC, test system Torulopsis glabrata, entry CC(C)(CF)C(O)(CCc1ccc(Cl)cc1Cl)Cn1ccnc1 (centres unmarked)
OUT: 2

IN: Provide value of MIC for this record tested with Torulopsis glabrata: COCC(C)(C)C(O)(COc1ccc(Cl)cc1Cl)Cn1cncn1 (centres unmarked)
OUT: 2

IN: Under Torulopsis glabrata: MIC value of CC(C)(CF)C(O)(CCc1ccc(Cl)cc1)Cn1cncn1 (centres unmarked) ?
OUT: 2

---

Test system: Candida-Zellen
Assay details: Antimycotic in-vivo activity (oral) in mouse candidosis
Set-up: species or system Mäuse vom Typ SPF-CF1; key: +++++: sehr gute Wirkung = 90 % Überlebende am 6.Tag p.i.; ++++: gute Wirkung = 80 % Überlebende am 6.Tag p.i.; +++: Wirkung = 60 % Überlebende am 6.Tag p.i.; ++: schwache Wirkung = 40 % Überlebende am 6.Tag p.i.; +: Spur Wirkung = unter 40 % Überlebende am 6.Tag p.i.; k.W.: keine Wirkung
Condition details: mice infected i.v. with Candida; oral 50 - 100 mg/kg one hour before and seven hours after infection; survivors on day 6 p.i.
Measure name: Wirkung

CC(C)(C)C(O)(COc1ccc(Cl)cc1)Cn1ccnc1 (stereo not drawn) [(A), reference compound] = k.W.
Cc1ccccc1OCC(O)(Cn1ccnc1)C(C)(C)C (stereo not drawn) [(C), reference compound] = k.W.
Cc1ccccc1CCC(O)(Cn1ccnc1)C(C)(C)C (stereo not drawn) [(D), reference compound] = k.W.
Cc1ccccc1OCC(O)(Cn1cncn1)C(C)(C)C (stereo not drawn) [(B), reference compound] = k.W.
